We begin with a simple list: items and their reported pIC50.
target: Src (p60^c-src, partially purified) (Homo sapiens, UniProt P12931)
Sequence (P12931 whole entry, species assumed): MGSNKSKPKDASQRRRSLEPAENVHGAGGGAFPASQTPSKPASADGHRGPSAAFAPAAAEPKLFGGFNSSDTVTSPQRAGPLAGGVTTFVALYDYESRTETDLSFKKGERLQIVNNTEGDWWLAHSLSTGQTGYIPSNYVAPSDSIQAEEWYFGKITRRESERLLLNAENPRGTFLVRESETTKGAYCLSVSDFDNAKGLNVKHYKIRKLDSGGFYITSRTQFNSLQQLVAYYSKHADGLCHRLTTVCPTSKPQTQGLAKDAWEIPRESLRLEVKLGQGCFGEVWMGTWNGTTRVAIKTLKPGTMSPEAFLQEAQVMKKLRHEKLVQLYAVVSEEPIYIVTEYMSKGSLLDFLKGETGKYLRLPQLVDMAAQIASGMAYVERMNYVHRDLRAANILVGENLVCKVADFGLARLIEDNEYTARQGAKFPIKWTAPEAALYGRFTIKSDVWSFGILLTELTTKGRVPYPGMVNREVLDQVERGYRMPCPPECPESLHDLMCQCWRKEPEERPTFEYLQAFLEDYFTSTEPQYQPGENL
pIC50: −log10 of the molar value.
measurement_kind: pIC50

INSERT INTO assay_data (compound, measurement_kind, measured) VALUES
  ('O=C(NC1CN2CCC1CC2)c1nc2nc(Nc3ccc(F)cc3)ncc2cc1-c1ccccc1Br (centres unmarked)', 'pIC50', 7.14),
  ('O=C(NCC[S+]([O-])CCO)c1nc2nc(Nc3ccc(F)cc3)ncc2cc1-c1ccccc1Br (centres unmarked)', 'pIC50', 6.89),
  ('CS(=O)(=O)NCCNC(=O)c1nc2nc(Nc3ccc4c(c3)S(=O)(=O)CCO4)ncc2cc1-c1ccccc1Br', 'pIC50', 8.30),
  ('CS(=O)(=O)NCCNC(=O)c1nc2nc(Nc3ccc(OCCO)cc3)ncc2cc1-c1ccccc1Br', 'pIC50', 8.06),
  ('C[S+]([O-])c1cccc(Nc2ncc3cc(-c4ccccc4Br)c(C#N)nc3n2)c1 (centres unmarked)', 'pIC50', 8.46);
